# Target entity: Melatonin receptor type 1A (Homo sapiens)
# Sequence (P48039 whole entry): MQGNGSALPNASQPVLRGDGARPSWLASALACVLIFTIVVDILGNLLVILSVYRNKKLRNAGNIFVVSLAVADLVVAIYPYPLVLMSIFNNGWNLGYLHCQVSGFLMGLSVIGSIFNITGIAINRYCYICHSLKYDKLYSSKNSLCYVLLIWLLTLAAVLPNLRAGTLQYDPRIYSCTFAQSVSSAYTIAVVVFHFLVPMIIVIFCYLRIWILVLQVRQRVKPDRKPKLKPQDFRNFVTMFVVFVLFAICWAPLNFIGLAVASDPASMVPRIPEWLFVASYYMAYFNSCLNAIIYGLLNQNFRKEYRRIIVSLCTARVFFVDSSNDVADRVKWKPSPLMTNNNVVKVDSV
# Test summary: Intrinsic activity at human MT1 receptor expressed in CHO cell membranes after 1 hr by [35S]GTPgammaS binding assay
Readout: EC50

| Chemical smiles | Target entity | Reported value |
| --- | --- | --- |
| CCNC(=O)NCCc1cccc2ccc(OC)nc12 | Melatonin receptor type 1A (Homo sapiens) | 9.5 nM |
| COc1ccc2cccc(CCNC(C)=O)c2n1 | Melatonin receptor type 1A (Homo sapiens) | 0.8 nM |
| CNC(=O)NCCc1cccc2ccc(OC)nc12 | Melatonin receptor type 1A (Homo sapiens) | 19 nM |
| CCNC(=S)NCCc1cccc2ccc(OC)nc12 | Melatonin receptor type 1A (Homo sapiens) | 31 nM |
| COC(=O)NCCc1cccc2ccc(OC)nc12 | Melatonin receptor type 1A (Homo sapiens) | > 1000 nM |
| CNC(=O)CCc1cccc2ccc(OC)nc12 | Melatonin receptor type 1A (Homo sapiens) | 65 nM |
| COc1ccc2cccc(CCNC(N)=O)c2n1 | Melatonin receptor type 1A (Homo sapiens) | 1620 nM |
| CNC(=S)NCCc1cccc2ccc(OC)nc12 | Melatonin receptor type 1A (Homo sapiens) | 90 nM |

###

# Target entity: Melatonin receptor type 1B (Homo sapiens, UniProt P49286)
# Sequence (P49286 whole entry): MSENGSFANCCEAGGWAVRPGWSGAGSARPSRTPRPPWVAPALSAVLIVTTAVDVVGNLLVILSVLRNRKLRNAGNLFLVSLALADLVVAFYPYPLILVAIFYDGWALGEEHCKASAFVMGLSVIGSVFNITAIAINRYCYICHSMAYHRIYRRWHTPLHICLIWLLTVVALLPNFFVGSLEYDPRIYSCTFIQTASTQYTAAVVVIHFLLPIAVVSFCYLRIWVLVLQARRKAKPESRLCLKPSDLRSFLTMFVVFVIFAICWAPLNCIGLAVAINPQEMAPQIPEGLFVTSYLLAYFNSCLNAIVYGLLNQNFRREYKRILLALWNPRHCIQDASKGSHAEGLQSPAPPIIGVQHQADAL
# Test summary: Intrinsic activity at human MT2 receptor expressed in CHO cell membranes after 1 hr by [35S]GTPgammaS binding assay
pEC50: −log10 of the molar value.

| Chemical smiles | pEC50 |
| --- | --- |
| CNC(=S)NCCc1cccc2ccc(OC)nc12 | 10.00 |
| CNC(=O)CCc1cccc2ccc(OC)nc12 | 9.15 |
| CCNC(=S)NCCc1cccc2ccc(OC)nc12 | 8.96 |
| COc1ccc2cccc(CCNC(N)=O)c2n1 | 9.70 |
| COC(=O)NCCc1cccc2ccc(OC)nc12 | 9.40 |
| COc1ccc2cccc(CCNC(C)=O)c2n1 | 9.70 |
| CCNC(=O)NCCc1cccc2ccc(OC)nc12 | 9.70 |
| CNC(=O)NCCc1cccc2ccc(OC)nc12 | 10.05 |

###

Quick note: these are pKi numbers for system: Melatonin receptor type 1B (Homo sapiens)
pKi: −log10 of the molar value.
Readout: pKi

| Chemical smiles | Reported value |
| --- | --- |
| CCNC(=S)NCCc1cccc2ncc(OC)cc12 | 6.26 |
| COc1cnc2cccc(CCNC(=O)CF)c2c1 | 8.22 |
| CCNC(=S)NCCc1cccc2ccc(OC)nc12 | 9.40 |
| CCNC(=O)NCCc1cccc2ncc(OC)cc12 | 7.14 |
| CNC(=S)NCCc1cccc2ncc(OC)cc12 | 6.60 |
| COc1ccc2cccc(CCNC(C)=O)c2n1 | 9.70 |
